- Test Summary: Stability in rat plasma
- Condition Notes: 0 minute
Assay Endpoint: Percentage of the compound remaining in plasma (%)

Compound	Unit Name	Val
CC(C)(C)C(=O)OCOc1ccc([N+](=O)[O-])c2cccnc12 [Compound 4, (5-nitroquinolin-8-yloxy)methyl pivalate]	%	100.0
O=[N+]([O-])c1ccc(O)c2ncccc12 [Nitroxoline]	%	100.0
CN(CC(O)CO)C(=O)OCOc1ccc([N+](=O)[O-])c2cccnc12 (stereo not drawn) [Compound 52]	%	100.0

* * *

- Test Summary: Stability in human liver microsome
- Condition Notes: with coenzyme, 2 μM, 37° C., 30 minutes
Assay Endpoint: Percentage of the compound remaining in human liver microsome (%)

Here is how some compounds turned out for Percentage of the compound remaining in human liver microsome.
Compound	Unit Name	Val
COC(=O)CN(C)C(=O)Oc1ccc([N+](=O)[O-])c2cccnc12	%	0.16
CCC(C)C(C(=O)OC)N(C)C(=O)OCOc1ccc([N+](=O)[O-])c2cccnc12 (centres unmarked)	%	0.12

1: CCC(CC)C(=O)OCOc1ccc([N+](=O)[O-])c2cccnc12
2: COC(=O)CCCCC(=O)OCOc1ccc([N+](=O)[O-])c2cccnc12
3: CCC(CC)C(=O)OC(C)Oc1ccc([N+](=O)[O-])c2cccnc12 (centres unmarked)
Prompt: Exam item: list the entries in increasing order of Percentage of the compound remaining in human liver microsome. Would you mind listing the labels in the order asked for?
Response: 2, 3, 1

* * *

- Test Summary: Stability in rat liver microsome
- Condition Notes: with coenzyme, 2 μM, 37° C., 30 minutes
Assay Endpoint: Percentage of the compound remaining in rat liver microsome (%)

# count of solved cases: 2
Compound	Val
CCC(NC(=O)OCOc1ccc([N+](=O)[O-])c2cccnc12)C(=O)OC (stereo not shown)	10.77
COC(=O)CN(C)C(=O)Oc1ccc([N+](=O)[O-])c2cccnc12	23.06

A: O=C(OCOc1ccc([N+](=O)[O-])c2cccnc12)N1CCOCC1
B: CCC(CC)C(=O)OC(C)Oc1ccc([N+](=O)[O-])c2cccnc12 (stereo not shown)
Prompt: Hi team, can someone confirm which has the larger Percentage of the compound remaining in rat liver microsome: A or B ? Thanks. Please indicate the selected item by its label.
Response: A

* * *

- Test Summary: Stability in rat liver microsome
- Condition Notes: without coenzyme, 2 μM, 37° C., 30 minutes
Assay Endpoint: Percentage of the compound remaining in rat liver microsome (%)

Compound	Val
COC(=O)CCCCC(=O)OCOc1ccc([N+](=O)[O-])c2cccnc12 [Compound 11]	0.03
CCC(=O)OC(C)Oc1ccc([N+](=O)[O-])c2cccnc12 (stereo not drawn) [Compound 48]	0.03
O=C(CCCCCCCO)OCOc1ccc([N+](=O)[O-])c2cccnc12 [Compound 10]	0.03

* * *

- Test Summary: Stability in human plasma
- Condition Notes: 37° C., 15 minutes
Assay Endpoint: Percentage of the compound remaining in plasma (%)

Compound	Val
CC(C)(C)OP(=O)(OCOc1ccc([N+](=O)[O-])c2cccnc12)OC(C)(C)C	85.6
CC(C)OC(=O)[C@H](C)NP(=O)(OCOc1ccc([N+](=O)[O-])c2cccnc12)Oc1ccccc1 (stereo partly shown)	98.5
CC1CN(C(=O)OCOc2ccc([N+](=O)[O-])c3cccnc23)CCO1 (stereo not shown)	95.4
CCC(CC)C(=O)OC(C)Oc1ccc([N+](=O)[O-])c2cccnc12 (stereo not shown)	97.2

Value source: patent US12152048B2
